Give IC50 for every item shown.
Test system: UACC-903
Assay: Antiproliferative activity against human UACC-903 cells assessed as reduction in cell viability measured after 72 hrs by MTS assay
Assay type: functional, cell-based
Details: UACC-903, 72 h
One number for each entry, in µM.

>  <compound>
Cc1cc(=O)oc2cc(OCC3CC(c4c(F)cccc4Cl)=NO3)ccc12 (centres undefined)

>  <measureName>
IC50

>  <reported>
4.5

$$$$
>  <compound>
COc1ccc(C2=NOC(COc3ccc4c(C)cc(=O)oc4c3)C2)cc1 (centres undefined)

>  <measureName>
IC50

>  <reported>
8.8

$$$$
>  <compound>
Cc1cc(=O)oc2cc(OCC3CC(c4ccccc4Cl)=NO3)ccc12 (centres undefined)

>  <measureName>
IC50

>  <reported>
9.2

$$$$

Field: next compound
Name the recorded IC50 of the item COc1ccc(C2=NOC(COc3ccc4c(C)cc(=O)oc4c3)C2)cc1OC (centres undefined) in your answer.
10.5
